targetOrTestSystem: Recombinant STAT3 protein (STAT3 (G127-I722)) (Homo sapiens)
Construct: Recombinant STAT3 protein (STAT3 (G127-I722))
Sequence (P40763 127-722): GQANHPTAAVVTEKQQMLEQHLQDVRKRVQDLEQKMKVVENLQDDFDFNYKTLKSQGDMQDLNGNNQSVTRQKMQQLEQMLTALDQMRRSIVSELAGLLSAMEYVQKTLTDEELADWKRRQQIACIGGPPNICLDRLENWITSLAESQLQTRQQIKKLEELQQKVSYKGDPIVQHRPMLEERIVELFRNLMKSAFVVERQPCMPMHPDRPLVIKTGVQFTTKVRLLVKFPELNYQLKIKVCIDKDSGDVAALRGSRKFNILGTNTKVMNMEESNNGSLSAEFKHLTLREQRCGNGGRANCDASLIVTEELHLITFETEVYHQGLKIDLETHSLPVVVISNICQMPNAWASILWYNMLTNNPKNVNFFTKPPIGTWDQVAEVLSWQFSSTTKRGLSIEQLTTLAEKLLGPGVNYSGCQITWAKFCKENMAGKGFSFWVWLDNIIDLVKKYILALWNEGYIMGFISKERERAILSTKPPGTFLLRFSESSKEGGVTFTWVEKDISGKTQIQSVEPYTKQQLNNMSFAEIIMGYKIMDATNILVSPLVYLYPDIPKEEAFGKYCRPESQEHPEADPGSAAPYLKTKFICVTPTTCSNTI
runDescription: STAT3 Fluorescence Polarization (FP) Assay
Format: binding
testConditions: STAT3 (G127-I722) 25 nM, probe 5-FAM-GpYLPQTV-NH2 2 nM, 45-minute incubation; read-out: STAT3 (FP assay IC50 class)
measurementKind: IC50

Known IC50 results, listed for orientation:
{"compound": "CCC[C@H]1CC[C@H](NC(=O)c2cc3cc(C(F)P(=O)(O)O)ccc3s2)C(=O)N2[C@H](CC[C@H]2C(=O)N2C[C@@H](C#N)[C@H](c3ccccc3)C2)C1 (single isomer, unassigned)", "targetOrTestSystem": "Recombinant STAT3 protein (STAT3 (G127-I722)) (Homo sapiens)", "IC50": "1000 to 10000 nM"}
{"compound": "CN(C)C(=O)N1CC[C@@H](NC(=O)[C@@H]2CC[C@@H]3CCCC[C@H](NC(=O)c4cc5cc(C(F)P(=O)(O)O)ccc5s4)C(=O)N32)C1 (stereo partly drawn)", "targetOrTestSystem": "Recombinant STAT3 protein (STAT3 (G127-I722)) (Homo sapiens)", "IC50": "100 to 1000 nM"}
{"compound": "C/C1=C/[C@H]2CC[C@@H](C(=O)N3CC(c4cnccc4C)C3)N2C(=O)[C@@H](NC(=O)c2cc3cc(CP(=O)(O)O)ccc3s2)CC1", "targetOrTestSystem": "Recombinant STAT3 protein (STAT3 (G127-I722)) (Homo sapiens)", "IC50": "100 to 1000 nM"}
{"compound": "CCc1ccncc1C1CN(C(=O)[C@@H]2CC[C@@H]3CCC[C@H](NC(=O)c4ccc5cc(CP(=O)(O)O)sc5c4)C(=O)N32)C1", "targetOrTestSystem": "Recombinant STAT3 protein (STAT3 (G127-I722)) (Homo sapiens)", "IC50": "100 to 1000 nM"}
{"compound": "O=C(N[C@H]1CCC[C@H]2CC[C@@H](C(=O)N3CC(c4cnccc4N4CC[C@@H]4C(F)F)C3)N2C1=O)c1cc2cc(CP(=O)(O)O)ccc2s1", "targetOrTestSystem": "Recombinant STAT3 protein (STAT3 (G127-I722)) (Homo sapiens)", "IC50": "< 100 nM"}
{"compound": "COc1cncc([C@@H]2CN(C(=O)[C@@H]3CC[C@@H]4CCC[C@H](NC(=O)c5cc6cc([C@H](F)P(=O)(O)O)ccc6s5)C(=O)N43)C3(CC3)[C@H]2C#N)c1 (single isomer, unassigned) [Compound 843]", "targetOrTestSystem": "Recombinant STAT3 protein (STAT3 (G127-I722)) (Homo sapiens)", "IC50": "1000 to 10000 nM"}
{"compound": "N#C[C@H]1[C@H](c2ccccc2)CN(C(=O)[C@@H]2CC[C@@H]3C[C@@H](N4CCC4)CC[C@H](NC(=O)c4cc5cc([C@H](F)P(=O)(O)O)ccc5s4)C(=O)N32)C12CC2 (single isomer, unassigned)", "targetOrTestSystem": "Recombinant STAT3 protein (STAT3 (G127-I722)) (Homo sapiens)", "IC50": "1000 to 10000 nM"}
{"compound": "Cc1cccnc1C1CN(C(=O)[C@@H]2CC[C@@H]3CCC[C@H](NC(=O)c4cc5cc(CP(=O)(O)O)ccc5s4)C(=O)N32)C1", "targetOrTestSystem": "Recombinant STAT3 protein (STAT3 (G127-I722)) (Homo sapiens)", "IC50": "1000 to 10000 nM"}

Okay, now this compound:
Q) Any idea what its IC50 is? The compound is O=C(N[C@H]1CCCC[C@H]2CC[C@@H](C(=O)N3CC(c4ccccc4)CC34CC4)N2C1=O)c1ccc2cnc(CP(=O)(O)O)cc2c1 (stereo partly drawn)
A) 1000 to 10000 nM

====

targetOrTestSystem: pY641-STAT6 in PBMC (Homo sapiens, UniProt P42226)
Construct: Cryopreserved Peripheral Blood Mononuclear Cells (PBMC) are from AllCells; host or cells: cryopreserved PBMC
Sequence (P42226 1-847): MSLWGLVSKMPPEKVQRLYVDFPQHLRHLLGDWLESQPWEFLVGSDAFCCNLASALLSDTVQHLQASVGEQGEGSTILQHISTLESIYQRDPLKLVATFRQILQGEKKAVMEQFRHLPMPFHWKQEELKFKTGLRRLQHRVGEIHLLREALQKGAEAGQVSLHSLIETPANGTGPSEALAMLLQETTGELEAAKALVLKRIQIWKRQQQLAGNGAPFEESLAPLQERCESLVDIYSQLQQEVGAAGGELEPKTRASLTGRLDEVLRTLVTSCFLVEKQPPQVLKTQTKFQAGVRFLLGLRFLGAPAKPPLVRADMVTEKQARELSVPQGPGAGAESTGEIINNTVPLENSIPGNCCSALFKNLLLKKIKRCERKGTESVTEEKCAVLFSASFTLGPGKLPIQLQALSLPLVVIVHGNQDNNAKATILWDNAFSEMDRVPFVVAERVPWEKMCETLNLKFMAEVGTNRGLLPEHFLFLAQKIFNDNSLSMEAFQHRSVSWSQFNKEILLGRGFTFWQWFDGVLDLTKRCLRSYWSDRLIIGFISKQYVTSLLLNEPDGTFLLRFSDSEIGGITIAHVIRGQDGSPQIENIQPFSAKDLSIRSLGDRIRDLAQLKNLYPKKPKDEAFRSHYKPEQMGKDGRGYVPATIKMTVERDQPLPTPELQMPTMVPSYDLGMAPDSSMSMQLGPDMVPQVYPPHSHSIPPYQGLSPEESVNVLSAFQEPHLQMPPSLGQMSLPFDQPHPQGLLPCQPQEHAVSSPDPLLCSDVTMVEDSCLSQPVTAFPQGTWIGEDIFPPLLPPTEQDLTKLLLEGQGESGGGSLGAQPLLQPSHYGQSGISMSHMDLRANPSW
runDescription: MSD-pSTAT-PBMC Assay (pSTAT6, IL-4 stimulated)
Assay type: cell-based
testConditions: STAT6, PBMC, compound 3 hrs, then 1 ng/mL IL-4 for 10 min; Table 115
Quick list: IC50 per entry.

{"compound": "CCCOC(=O)[C@H](C)NP(=O)(Oc1ccccc1)C(F)c1ccc2sc(C(=O)N[C@H]3CCCC[C@H]4CC[C@@H](C(=O)N5CCC(c6cnn(C)c(=O)c6)C5)N4C3=O)cc2c1 (some centres unmarked) [Compound 465]", "targetOrTestSystem": "pY641-STAT6 in PBMC (Homo sapiens, UniProt P42226)", "IC50": "> 3000 nM"}
{"compound": "CCCOC(=O)[C@H](C)NP(=O)(Oc1ccccc1)[C@H](F)c1ccc2sc(C(=O)N[C@H]3CCC[C@H]4CC[C@@H](C(=O)N5C[C@@H](c6cccnc6)[C@H](C#N)C56CC6)N4C3=O)cc2c1 (single isomer, unassigned) [Compound 355]", "targetOrTestSystem": "pY641-STAT6 in PBMC (Homo sapiens, UniProt P42226)", "IC50": "< 100 nM"}
{"compound": "CC(C)COC(=O)[C@H](C)NP(=O)(Oc1ccccc1)[C@@H](F)c1ccc2sc(C(=O)N[C@H]3CCCC[C@H]4CC[C@@H](C(=O)N5C[C@@H](c6cccnc6)CC56CC6)N4C3=O)cc2c1 (some centres unmarked) [Compound 417]", "targetOrTestSystem": "pY641-STAT6 in PBMC (Homo sapiens, UniProt P42226)", "IC50": "< 100 nM"}
{"compound": "CCC(CC)COC(=O)[C@H](C)NP(=O)(Cc1ccc2ccc(C(=O)N[C@H]3CCCC[C@H]4CC[C@@H](C(=O)N5CC(c6ccccc6)CC56CC6)N4C3=O)cc2c1)Oc1ccccc1 (some centres unmarked) [Compound 404]", "targetOrTestSystem": "pY641-STAT6 in PBMC (Homo sapiens, UniProt P42226)", "IC50": "1000 to 3000 nM"}
{"compound": "CCCOC(=O)[C@H](C)NP(=O)(Oc1ccccc1)[C@@H](F)c1ccc2sc(C(=O)N[C@H]3C[C@@H](C)C[C@H]4CC[C@@H](C(=O)N5C[C@@H](c6cccnc6)CC56CC6)N4C3=O)cc2c1 (some centres unmarked) [Compound 353]", "targetOrTestSystem": "pY641-STAT6 in PBMC (Homo sapiens, UniProt P42226)", "IC50": "< 100 nM"}

Q) Any idea what its IC50 is? The compound is CCCOC(=O)[C@H](C)NP(=O)(Oc1ccccc1)[C@@H](F)c1ccc2sc(C(=O)N[C@H]3CCCC[C@H]4CC[C@@H](C(=O)N5C[C@H](c6cncc(Cl)c6)[C@@H](C#N)C56CC6)N4C3=O)cc2c1 (single isomer, unassigned) [Compound 371]
A) 1000 to 3000 nM

Q) Follow-up item: CCCOC(=O)[C@H](C)NP(=O)(Cc1ccc2sc(C(=O)N[C@H]3CCC[C@H]4CC[C@@H](C(=O)N5CC(c6cnccc6OC)C5)N4C3=O)cc2c1)Oc1ccccc1 (some centres unmarked) [Compound 255]
A) > 3000 nM

Q) Follow-up item: CCCOC(=O)[C@H](C)NP(=O)(Oc1ccccc1)[C@H](F)c1ccc2sc(C(=O)N[C@H]3CCC[C@H]4CC[C@@H](C(=O)N5CC(c6cnccc6N(C)C)C5)N4C3=O)cc2c1 (single isomer, unassigned) [Compound 954]
A) > 3000 nM

Q) Follow-up item: COC(C)(C)COC(=O)[C@H](C)NP(=O)(Oc1ccccc1)[C@@H](F)c1ccc2sc(C(=O)N[C@H]3CCCC[C@H]4CC[C@@H](C(=O)N5C[C@@H](c6cccnc6)CC56CC6)N4C3=O)cc2c1 (some centres unmarked) [Compound 358]
A) < 100 nM

Q) Follow-up item: CCCOC(=O)[C@H](C)NP(=O)(Oc1ccccc1)C(F)c1ccc2sc(C(=O)N[C@H]3CCCC[C@H]4CC[C@@H](C(=O)N5C[C@@H](C#N)[C@H](c6cccn(C)c6=O)C5)N4C3=O)cc2c1 (relative stereo) [Compound 299]
A) 100 to 1000 nM

Q) Follow-up item: CCCOC(=O)[C@H](C)NP(=O)(Oc1ccccc1)[C@@H](F)c1ccc2sc(C(=O)N[C@H]3CCC[C@H]4CC[C@@H](C(=O)N5C[C@@H](c6cccnc6)CC56CC6)N4C3=O)cc2c1 (some centres unmarked) [Compound 379]
A) < 100 nM
